These data points were gathered from PubChem BioAssay AID449762.

- Tested on: M. tuberculosis H37Rv growth inhibition, 7H9 media
- assay-procedure: M. tuberculosis growth inhibition, HTS (AID 449762);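 note: bacterial growth assessed after seven days of incubation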
- run-parameters: measured here: IC90 growth inhibition
Results filed as inconclusive are left out.
Each entry below carries its reported IC90.
Write the value in µM as a bare number.

O=C1c2cccc3c([N+](=O)[O-])ccc(c23)C(=O)N1O    13.8

Ask | Return IC90 (reported value) for this compound: CCOc1ccc(-c2cc(CCCC(=O)NCCC(C)C)no2)cc1
Reply | 14.3

Ask | Answer with the recorded IC90 of CCOC(=O)c1ccc(-c2c(-c3ccc4c(c3)OCO4)noc2C)cc1F only.
Reply | 54

Ask | Determine from records and report IC90 for C=C(C)C1Cc2c(C)nn(-c3nc(C)cc(C)n3)c2C1 (stereo not given)
Reply | 6.74

###

Listed here: items and their measured IC90.
- System: M. tuberculosis H37Rv growth inhibition, 7H9 media
- assay-procedure: M. tuberculosis growth inhibition, HTS (AID 449762);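 note: bacterial growth assessed after seven days of incubation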
- run-parameters: measured here: IC90 growth inhibition
Records with an inconclusive call do not appear.
Just the number please, in µM, no unit attached.

Ask | Provide one value: measured IC90 of O=C1CC(/C=C/c2ccc(Cl)cc2)=Nc2ccccc2N1
Reply | 14.1

###

- System: M. tuberculosis H37Rv growth inhibition, 7H9 media
- assay-procedure: M. tuberculosis growth inhibition, HTS (AID 449762);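 note: bacterial growth assessed after seven days of incubation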
- run-parameters: measured here: IC90 growth inhibition
Results filed as inconclusive are left out.
# Lookup of reported IC90 keyed by entry
Unit µM implied. Number only.

Previously resolved entries follow.
COC(=O)c1ccc(C(=O)OC)c(NC(=O)CSc2cccc[n+]2[O-])c1    3.37
CCn1cnc2sc(C(=O)Oc3ccc(Br)cc3)c(C)c2c1=O    11.3
CC(C)COCc1ccc(O)c2ncccc12    2.35
Cc1c(CN(C)C)c2c(n1Cc1ccccc1)C(=O)c1ccc(Br)cc1-2    22

Ask | Specify measured IC90 for CC1(C)OC(=O)C(=Cc2ccc[nH]2)C(=O)O1 .
Reply | 24.1

Ask | Write down IC90 measured for item Oc1ccccc1Nc1nc(NCc2ccccc2)c2ccccc2n1
Reply | 21.1

Ask | Supply IC90 value. Item: Cc1cc(/C=N\NC(=O)c2cccs2)c(C)n1-c1ccc2ncccc2c1
Reply | 31.7

Ask | Report IC90 for CCc1cc2c(=O)c(-c3cnn(-c4ccccc4)c3)c(C)oc2c(CN2CCCCC2)c1O
Reply | 21.7

###

- Test system: M. tuberculosis H37Rv growth inhibition, 7H9 media
- assay-procedure: M. tuberculosis growth inhibition, HTS (AID 449762);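 note: bacterial growth assessed after seven days of incubation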
- run-parameters: measured here: IC90 growth inhibition
Inconclusive results are not listed.
Listed compounds paired with reported IC90

Study these solved cases before continuing.
Cc1ccc(N/C=C2\C(=O)C3(C)CCC2C3(C)C)cc1C (stereo not drawn)    > 100 µM
O=C(COc1cc(O)c2c(=O)c3ccccc3oc2c1)OCc1ccccc1    > 100 µM

Could you now look at the following compound, please?
Ask | State measured IC90 of the compound O=C1N/C(=N\N=C\c2ccccn2)SC1Cc1cccc(SC(F)F)c1 (stereo not drawn) with M. tuberculosis H37Rv growth inhibition, 7H9 media.
Reply | > 100 µM

###

- Tested on: M. tuberculosis H37Rv growth inhibition, 7H9 media
- assay-procedure: M. tuberculosis growth inhibition, HTS (AID 449762);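 note: bacterial growth assessed after seven days of incubation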
- run-parameters: measured here: IC90 growth inhibition
Results filed as inconclusive are left out.
observation-type: IC90

Below, each entry is followed by its recorded IC90 result.
CCOC(=O)c1c(/N=C/N(C)C)sc(/C=N/Nc2ccccc2)c1-c1ccccc1Cl    > 100 µM
COc1c(C)cc(C(=O)C2CCCN(Cc3ccccn3)C2)cc1C (stereo not drawn)    > 100 µM

Continue with the next compound.
Ask | State its IC90 for this compound: COc1ccc(/C(O)=C/Sc2nnc(Cc3ccccc3)o2)cc1
Reply | > 100 µM
